target: Grb2 SH2 (UniProt P62993); assay: SH2 binding enrichment of the phosphorylated peptide, bacterial display (enrichment ratio); higher = better substrate or ligand; peptides without Tyr show the background
Sequence (P62993 whole entry, looked up): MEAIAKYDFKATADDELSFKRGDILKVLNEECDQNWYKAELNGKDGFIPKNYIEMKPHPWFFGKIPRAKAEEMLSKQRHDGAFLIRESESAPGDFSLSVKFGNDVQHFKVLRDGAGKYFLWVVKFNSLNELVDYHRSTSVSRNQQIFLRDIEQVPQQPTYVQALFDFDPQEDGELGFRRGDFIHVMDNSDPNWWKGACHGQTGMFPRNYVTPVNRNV
Class field: derived from SH2 binding enrichment; ranges bucket A (below 0.8), bucket B (0.8 to below 0.9), bucket C (0.9 or more)

# sequence input, tested on, label value
measured = [
    ("YHIDHYLGKEM [G6PD_Y202_R198H]", "Grb2 SH2 (UniProt P62993)", "bucket C"),
    ("MKGDFYRFLAE [YWHAG_Y131_YF]", "Grb2 SH2 (UniProt P62993)", "bucket A"),
    ("VTQEPYELYCE [CBL_Y368_Q367P]", "Grb2 SH2 (UniProt P62993)", "bucket C"),
    ("FISVGYVDDTQ [HLA-B_Y51]", "Grb2 SH2 (UniProt P62993)", "bucket C"),
    ("RQEEEYKRFSE [SFSWAP_Y133_L136F]", "Grb2 SH2 (UniProt P62993)", "bucket C"),
    ("QAINEYEKWLE [MAP9_Y603]", "Grb2 SH2 (UniProt P62993)", "bucket A"),
    ("QTEAPYRFIYM [PTPN11_Y511_Q510P]", "Grb2 SH2 (UniProt P62993)", "bucket B"),
    ("AAGGRYFGLVG [HARS1_Y363_D364Y_YF]", "Grb2 SH2 (UniProt P62993)", "bucket C"),
    ("SVTCTYSPAHN [TP53_Y126_L130H]", "Grb2 SH2 (UniProt P62993)", "bucket A"),
    ("RKETFYTLSCR [GUCY2C_Y681]", "Grb2 SH2 (UniProt P62993)", "bucket C"),
    ("FCIDHYLGKEM [G6PD_Y202_R198C_YF]", "Grb2 SH2 (UniProt P62993)", "bucket B"),
    ("DVFRQYASLRG [GANAB_Y379_T383R]", "Grb2 SH2 (UniProt P62993)", "bucket B"),
    ("GVLKEYVVKVL [CPS1_Y529_G530V]", "Grb2 SH2 (UniProt P62993)", "bucket C"),
    ("IFGVSYDEYRY [CFTR_Y512]", "Grb2 SH2 (UniProt P62993)", "bucket A"),
    ("GSTLSYFGLAA [P2RX7_Y343]", "Grb2 SH2 (UniProt P62993)", "bucket C"),
    ("AVAFVYYKSIG [ADGRL4_Y301]", "Grb2 SH2 (UniProt P62993)", "bucket C"),
    ("RPFFLYVAFHD [SGSH_Y174]", "Grb2 SH2 (UniProt P62993)", "bucket B"),
    ("HNLPIYEGYAL [ACTA1_Y168_V165L]", "Grb2 SH2 (UniProt P62993)", "bucket B"),
]

* * *

target: MERTK (UniProt Q12866); assay: phosphorylation enrichment, bacterial display (enrichment ratio); higher = better substrate or ligand; peptides without Tyr show the background
Sequence (Q12866 whole entry, looked up): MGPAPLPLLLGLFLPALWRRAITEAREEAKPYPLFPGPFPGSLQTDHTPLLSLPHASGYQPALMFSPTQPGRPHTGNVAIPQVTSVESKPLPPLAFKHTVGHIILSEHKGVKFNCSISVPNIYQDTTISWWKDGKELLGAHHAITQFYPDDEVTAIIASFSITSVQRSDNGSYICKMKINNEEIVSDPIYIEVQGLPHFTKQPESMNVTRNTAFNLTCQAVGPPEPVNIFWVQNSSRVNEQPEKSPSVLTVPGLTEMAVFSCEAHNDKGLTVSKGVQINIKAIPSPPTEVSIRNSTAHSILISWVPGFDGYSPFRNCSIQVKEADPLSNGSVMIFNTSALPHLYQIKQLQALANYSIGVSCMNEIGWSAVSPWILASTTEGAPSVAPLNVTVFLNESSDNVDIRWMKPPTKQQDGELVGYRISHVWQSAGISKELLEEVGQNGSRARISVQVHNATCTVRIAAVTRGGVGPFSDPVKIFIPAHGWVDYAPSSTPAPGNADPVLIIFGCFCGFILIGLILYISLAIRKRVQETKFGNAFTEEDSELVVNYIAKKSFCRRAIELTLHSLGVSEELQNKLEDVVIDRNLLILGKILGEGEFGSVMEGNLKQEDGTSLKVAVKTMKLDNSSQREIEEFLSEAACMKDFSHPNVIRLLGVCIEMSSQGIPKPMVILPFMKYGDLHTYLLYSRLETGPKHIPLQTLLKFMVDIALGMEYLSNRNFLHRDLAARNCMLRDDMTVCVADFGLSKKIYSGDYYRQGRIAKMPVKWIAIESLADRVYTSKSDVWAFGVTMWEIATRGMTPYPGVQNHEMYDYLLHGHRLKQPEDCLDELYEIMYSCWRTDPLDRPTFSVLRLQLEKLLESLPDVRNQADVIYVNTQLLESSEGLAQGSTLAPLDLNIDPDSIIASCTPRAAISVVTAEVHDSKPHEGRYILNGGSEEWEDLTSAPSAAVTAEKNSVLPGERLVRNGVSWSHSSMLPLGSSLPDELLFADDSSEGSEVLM

# sequence input, tested on, phosphorylation enrichment
measured = [
    ("NKHTNYTMEHI [ACTN1_Y708]", "MERTK (UniProt Q12866)", 0.358),
    ("VNKIYYPDFIV [LIG3_Y768]", "MERTK (UniProt Q12866)", 2.72),
    ("NPQKSYFICLF [WAS_Y83_R86C_YF]", "MERTK (UniProt Q12866)", 0.43),
    ("QRPGPYDRPGA [HNRNPH2_Y210]", "MERTK (UniProt Q12866)", 0.426),
    ("VGQRPYQPLPE [REEP3_Y170]", "MERTK (UniProt Q12866)", 0.406),
    ("SVMAEYGLFAA [VSX2_Y219_G223A_YF]", "MERTK (UniProt Q12866)", 0.396),
    ("VPFAQYLAMNK [HARS1_Y138_R137Q]", "MERTK (UniProt Q12866)", 0.403),
    ("QLRPGYIPIPV [BAG3_Y93]", "MERTK (UniProt Q12866)", 0.772),
    ("FIGRIYLYLTK [GARS1_Y414]", "MERTK (UniProt Q12866)", 0.538),
    ("GHGEEYPAAGA [NOTCH3_Y2221]", "MERTK (UniProt Q12866)", 0.379),
    ("QMVGMYAFSYM [AVPR2_Y124_S126F]", "MERTK (UniProt Q12866)", 6.65),
    ("EKLQQYIAPGM [EPHB3_Y600]", "MERTK (UniProt Q12866)", 0.328),
    ("NTQRPYYKGGG [TYROBP_Y111]", "MERTK (UniProt Q12866)", 0.415),
    ("FIATQYSLCPR [LBR_Y166_R169C_YF]", "MERTK (UniProt Q12866)", 0.752),
]

* * *

molecular target: FGFR3 (UniProt P22607); experiment: phosphorylation enrichment, bacterial display (enrichment ratio); higher = better substrate or ligand; peptides without Tyr show the background
Sequence (P22607 whole entry, looked up): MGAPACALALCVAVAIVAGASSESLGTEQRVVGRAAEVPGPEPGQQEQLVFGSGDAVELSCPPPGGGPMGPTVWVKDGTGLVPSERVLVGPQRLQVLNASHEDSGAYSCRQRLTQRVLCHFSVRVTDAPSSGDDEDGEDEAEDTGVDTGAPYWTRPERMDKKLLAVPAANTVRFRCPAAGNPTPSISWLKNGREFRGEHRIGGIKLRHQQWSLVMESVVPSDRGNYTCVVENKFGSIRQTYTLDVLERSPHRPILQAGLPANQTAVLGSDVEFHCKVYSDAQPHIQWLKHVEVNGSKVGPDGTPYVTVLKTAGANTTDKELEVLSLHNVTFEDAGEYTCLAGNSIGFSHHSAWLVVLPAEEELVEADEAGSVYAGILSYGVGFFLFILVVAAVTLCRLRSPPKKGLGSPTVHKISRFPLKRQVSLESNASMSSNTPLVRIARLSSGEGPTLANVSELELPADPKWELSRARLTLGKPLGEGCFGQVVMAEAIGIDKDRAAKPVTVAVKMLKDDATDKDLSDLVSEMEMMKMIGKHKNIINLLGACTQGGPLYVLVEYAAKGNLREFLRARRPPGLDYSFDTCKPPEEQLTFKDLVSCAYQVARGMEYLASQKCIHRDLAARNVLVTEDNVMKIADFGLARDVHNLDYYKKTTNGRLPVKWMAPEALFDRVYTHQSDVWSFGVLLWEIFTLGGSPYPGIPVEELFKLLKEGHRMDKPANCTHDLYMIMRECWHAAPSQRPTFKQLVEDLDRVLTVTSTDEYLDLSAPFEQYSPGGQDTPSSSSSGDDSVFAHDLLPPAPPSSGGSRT

# sequence input, tested on, phosphorylation enrichment
rows = [
    ("LDPDSYNVFEN [FOXC1_Y159_M161V]", "FGFR3 (UniProt P22607)", 1.31),
    ("YVSSFYHAFSG [ACTN4_Y265]", "FGFR3 (UniProt P22607)", 2.32),
    ("QQLQGYIPSNF [FRK_Y99_YF]", "FGFR3 (UniProt P22607)", 1.09),
    ("TGDFGYRTPGY [TNS2_Y668_A670T]", "FGFR3 (UniProt P22607)", 0.465),
    ("FIATQYSLCPR [LBR_Y166_R169C_YF]", "FGFR3 (UniProt P22607)", 0.762),
    ("EKLQQYIAPGM [EPHB3_Y600]", "FGFR3 (UniProt P22607)", 0.506),
    ("VCDSNYSASRW [LRP5_Y1552_D1551N]", "FGFR3 (UniProt P22607)", 0.626),
    ("TLQSMFGCDVG [HLA-B_Y123_Y123F]", "FGFR3 (UniProt P22607)", 0.7),
    ("YGSGNYNDFGN [HNRNPA2B1_Y300]", "FGFR3 (UniProt P22607)", 0.654),
    ("FSEVRYVKEPY [HIPK4_Y170]", "FGFR3 (UniProt P22607)", 0.538),
    ("SSFSGYIMMPN [LEF1_Y114_YF]", "FGFR3 (UniProt P22607)", 1.39),
    ("RIILLYIFLKN [STXBP1_Y411]", "FGFR3 (UniProt P22607)", 0.489),
    ("FSAGTYPRLEE [SYCN_Y108]", "FGFR3 (UniProt P22607)", 0.659),
    ("VDLSKYITTIA [FAS_Y232]", "FGFR3 (UniProt P22607)", 0.452),
    ("AESPEYVHMYT [FAM111A_Y511]", "FGFR3 (UniProt P22607)", 1.26),
    ("KRAAIYNPVIF [RHO_Y301_S297R_YF]", "FGFR3 (UniProt P22607)", 0.541),
    ("FLAVGYHQPHI [IDS_Y225_K227Q]", "FGFR3 (UniProt P22607)", 0.514),
    ("EQRRAYLEGTC [HLA-C_Y183_L180R]", "FGFR3 (UniProt P22607)", 0.675),
    ("VLALWYFFLTN [ZDHHC23_Y127_H132N_YF]", "FGFR3 (UniProt P22607)", 1.94),
    ("KLKEKYEKDIA [HMGB1_Y155]", "FGFR3 (UniProt P22607)", 0.452),
    ("PIDLFYLMDLS [ITGB2_Y131_YF]", "FGFR3 (UniProt P22607)", 1.13),
    ("CVAARYMDMKG [WFIKKN2_Y93_V96M]", "FGFR3 (UniProt P22607)", 0.637),
    ("ETDSEYVKLAK [C7orf57_Y70]", "FGFR3 (UniProt P22607)", 0.478),
    ("AFSLKYDQQTQ [SYTL4_Y366_E367D]", "FGFR3 (UniProt P22607)", 0.784),
    ("QAFSWYQHQRA [NDST1_Y714_R709Q_YF]", "FGFR3 (UniProt P22607)", 1.02),
    ("NESVDYRATFP [MET_Y1003]", "FGFR3 (UniProt P22607)", 0.489),
    ("IPGVEYLVSII [TNC_Y1775]", "FGFR3 (UniProt P22607)", 0.723),
    ("LSAPEYGPKLK [TBC1D14_Y46]", "FGFR3 (UniProt P22607)", 0.565),
    ("RLSARYFQGDL [PDK3_Y337_Y334S]", "FGFR3 (UniProt P22607)", 0.492),
]
